test description: NCI Yeast Anticancer Drug Screen. Data for the sgs1 mgt1 strain (AID 161);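 note: 0% = growth of cultures given vehicle only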
applied conditions: S. cerevisiae sgs1 mgt1 strain, at 50.0 µM, stronger effect = higher value
Experimental: Growth inhibition of yeast strains with defined genetic alterations is measured as a screen for potential anti-cancer activity. Selected strains with alterations in DNA damage repair or cell cycle control were exposed to compounds and growth inhibition was measured relative to vehicle treated controls. The strain used in this assay is sgs1 mgt1
About 79,000 compounds went through this panel and 15% of them were active in at least one assay; those are over-represented in the sample as a whole. Calls of active or inactive are those of the source. Cut-off read from the data, not from the text of the source: active = growth inhibition above about 70%; inactive = the rest.
property label: growth inhibition

{"compound": "NC1(C(=O)O)CCCC1", "measurement": "-15.2% (inactive)"}

Determine from records and report growth inhibition for `CC(C)C1(Cc2ccccc2)C(=O)NC(=S)NC1=O`
9.3% (inactive)

Determine from records and report growth inhibition for `COc1ccc2nc3c4ccccc4scc-3c2c1`
99.5% (active)

Determine from records and report growth inhibition for `COc1ccc(CCN)c(OC)c1`
-3.5% (inactive)

Determine from records and report growth inhibition for CCCCCCCCCNP(=O)(OCc1ccccc1)N(CCCl)CCCl (configuration not stated)
40.2% (inactive)

Determine from records and report growth inhibition for `CC1(C)COP(=S)(SCCC#N)OC1`
0.95% (inactive)

Determine from records and report growth inhibition for `Nc1noc(N)n1`
-26.8% (inactive)

Determine from records and report growth inhibition for `CO[C@H]1C[C@H](O[C@H]2CC[C@@]3(C)[C@H](CC[C@@H]4[C@@H]3CC[C@]3(C)[C@@H](C5=CC(=O)OC5)CC[C@]43O)C2)O[C@H](C)[C@H]1O`
17.8% (inactive)

Determine from records and report growth inhibition for `COc1cc([As](=O)(O)O)c(OC)cc1N`
-0.9% (inactive)

Determine from records and report growth inhibition for `O=C(O)c1cccc(Cl)c1`
19.1% (inactive)

Determine from records and report growth inhibition for `CCCC[S][Sn-]([CH2]CCC)([CH2]CCC)[CH2]CCC`
99.2% (active)

Determine from records and report growth inhibition for O=C1OCC2(CO)SC(c3ccccc3)NC12 (configuration not stated)
-17.1% (inactive)

* * *

test description: NCI Yeast Anticancer Drug Screen. Data for the mlh1 rad18 strain (AID 175)
applied conditions: S. cerevisiae mlh1 rad18 strain growth inhibition; at 50.0 µM; stronger effect = higher value
Compounds without any hit were thinned out: in the full panel of roughly 79,000, 15% have a hit.
Entries and their growth inhibition
Number only, in %; omit the unit.

Determine from records and report growth inhibition for `BrP(Br)(c1ccccc1)(c1ccccc1)c1ccccc1`
-0.1

Determine from records and report growth inhibition for CC(C)CC1N=C(NN=C(CCl)CCl)SP1(=O)NCCCCCCNP1(=O)SC(NN=C(CCl)CCl)=NC1CC(C)C (centres undefined)
13.8

* * *

test description: NCI Yeast Anticancer Drug Screen. Data for the rad50 strain (AID 155);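 note: 0% = growth of vehicle-only cultures of the same strain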
applied conditions: S. cerevisiae rad50 strain growth inhibition; at 50.0 µM; stronger effect = higher value
Compounds without any hit were thinned out: in the full panel of roughly 79,000, 15% have a hit.
Entries and their growth inhibition
Number only, in %; omit the unit.

Please review the entries below; each comes with its answer.
{"compound structure": "CCCCCCCC(=O)[O-].N.N.N.N.N.[Co+3].[O-][Cl+3]([O-])([O-])[O-]", "measurement": -16.1}
{"compound structure": "O=C(Cl)c1ccc[nH]1", "measurement": -0.95}
{"compound structure": "COc1ccc(NC2=C(C)C(=O)C3=C(C2=O)[C@H](COC(N)=O)[C@]2(OC)[C@@H]4N[C@@H]4CN32)cc1", "measurement": 81.7}
{"compound structure": "C=[CH][Sn]([Cl])([Cl])[CH]=C.CN(C)P(=O)(N(C)C)N(C)C", "measurement": 28.5}

Determine from records and report growth inhibition for `CN(C)CCCNc1c2c(nc3ccc(Cl)cc13)CCCC2`
-1.2

Determine from records and report growth inhibition for `O=C(O)C(CP(=O)(O)O)=C(Cl)Cl`
-21.4
